Source of measurements: ChEMBL document CHEMBL1201862

Recorded GI50 by entry
# System: SK-MEL-28
# protocol text: NCI tumour cell line growth inhibition, 48 h
Active and inactive are the calls of the source. No stated cut-off is given here; in the data, active = GI50 up to about 1.1 µM and inactive = higher.

Would you please look over these solved cases?
[[record]]
molecule = "O=C1Cc2nc(CO)c(CO)c(CO)c2CO1"
target_system = "SK-MEL-28"
recorded_endpoint = "GI50"
reported_result = "> 100 µM (inactive)"

[[record]]
molecule = "COC(=O)C[C@](O)(CCC(C)(C)O)C(=O)O[C@@H]1C(OC)=C[C@]23CCCN2CCc2cc4c(cc2[C@H]13)OCO4"
target_system = "SK-MEL-28"
recorded_endpoint = "GI50"
reported_result = "0.0593 µM (active)"

[[record]]
molecule = "COC1CCC2C(NS(=O)(=O)c3ccc(C)cc3)CCCC2O1.Cc1ccc(S(=O)(=O)NC(C)(C)C=O)cc1 (stereo not given)"
target_system = "SK-MEL-28"
recorded_endpoint = "GI50"
reported_result = "30 µM (inactive)"

[[record]]
molecule = "O=c1ccn(C2OC(CO)C(O)C2[Se]c2ccccc2)c(=O)[nH]1 (stereo not given)"
target_system = "SK-MEL-28"
recorded_endpoint = "GI50"
reported_result = "> 100 µM (inactive)"


# input for lookup
Per the records, this molecule ( CC(=O)OC(C)(C)[C@@H]1CC[C@]2(C)/C=C/[C@H](C)C[C@@H](O)C3=C(C)C[C@@H](O3)C12 (stereo not given in full) ) has GI50 equal to > 100 µM (inactive)

----------
# Tested on: RXF 393
# protocol text: NCI tumour cell line growth inhibition, 48 h
Active and inactive are the calls of the source. Cut-off read from the data, not from the text of the source: active = GI50 up to about 1.1 µM and inactive = higher.
recorded endpoint: GI50

Would you please look over these solved cases?
[[record]]
compound = "CC(=O)Nn1c(=S)[nH]c2ccccc21"
reported_result = "> 100 µM (inactive)"

[[record]]
compound = "CC1(C)CCCC2CC2CCC(C)(C)C1=O (stereo unspecified)"
reported_result = "27.4 µM (inactive)"

[[record]]
compound = "COC(=O)CC(C#N)(OP1(=O)OC(c2ccccc2)C(C)N1C)c1ccccc1 (stereo unspecified)"
reported_result = "20.6 µM (inactive)"

[[record]]
compound = "O=C(CC(=O)c1ccccc1NC1=Cc2ccccc2C(=O)C1=O)C(=O)NC1=C(Cl)C(=O)c2ccccc2C1=O"
reported_result = "2.34 µM (inactive)"

[[record]]
compound = "CC(=O)Nc1cc2ccc(=O)oc2cc1Cl"
reported_result = "> 100 µM (inactive)"

[[record]]
compound = "O=C1C/C(=C\\O)C(=O)c2ccccc2N1"
reported_result = "> 100 µM (inactive)"


# input for lookup
Value (GI50, RXF 393) for record CO/C(N)=C(C#N)/N=C/c1ccsc1 = 31.8 µM (inactive)

----------
# Tested on: U-251
# protocol text: NCI tumour cell line growth inhibition, 48 h
Active and inactive are the calls of the source. No stated cut-off is given here; in the data, active = GI50 up to about 1.1 µM and inactive = higher.
In this exercise, the only acceptable responses are class 1 = active, class 0 = inactive

input: What was the test verdict on CN(Cc1cnc2nc(N)nc(N)c2n1)c1ccc(C(=O)NCS(=O)(=O)O)cc1 ?
output: class 0

----------
Recorded GI50 by entry
# Test system: EKVX
# protocol text: NCI tumour cell line growth inhibition, 48 h
Active and inactive are the calls of the source. Rule as the data show it: active = GI50 up to about 1.1 µM and inactive = higher.

Per the records, this molecule ( COc1cc2ccnc(-c3c4ccccc4c(N)c4c(OC)c(OC)ccc34)c2cc1OC ) has GI50 equal to 10.4 µM (inactive)

Per the records, this molecule ( COC(=O)CC(C#N)(OP1(=O)OC(c2ccccc2)C(C)N1C)c1ccccc1 (stereo unspecified) ) has GI50 equal to 21.7 µM (inactive)

Per the records, this molecule ( NC(=O)c1nnsc1NC=O ) has GI50 equal to > 100 µM (inactive)

Per the records, this molecule ( CC(=O)OCc1ccc2oc(=O)c(C(=O)Oc3ccccc3)cc2c1 ) has GI50 equal to 37.8 µM (inactive)

Per the records, this molecule ( CN(C)CCN(C)CCC(=O)/C=C/c1ccccc1 ) has GI50 equal to 32.1 µM (inactive)

Per the records, this molecule ( CC(=O)N1CCN(CCCCN2c3ccccc3Sc3cc(N=[N+]=[N-])ccc32)CC1 ) has GI50 equal to 18.2 µM (inactive)
